Target desc: Bile acid receptor (Homo sapiens)
Procedure text: qHTS assay to identify small molecule antagonists of the farnesoid-X-receptor (FXR) signaling pathway (AID 743217)
Test parameters: HEK293T FXR-UAS-bla, beta-lactamase ratio, CDCA-stimulated, 16 h; series mostly up to 62.6 µM
Results filed as inconclusive are left out. Active and inactive are the calls of the source. Calls come from the whole dose curve; as a rule, active = well fitted inhibition curve with a large enough effect in the signal ratio in the repeat runs (not every such curve was filed as active); inconclusive = weak or mixed curves, or effect the other way; inactive = no such curve, though single readings can be large or run the other way; the % refers to the signal ratio.
Response enum: active, inactive

Entry CN(C)c1ccc(SC#N)cc1 : call = ?
inactive

Moving on to the next compound: Cc1cc(O)c(C(C)(C)C)cc1C(C)(C)C
active

Moving on to the next compound: O=c1[nH]cnc2nc[nH]c12
inactive

Moving on to the next compound: O=CC=C(c1ccccc1)c1ccccc1
inactive

Moving on to the next compound: O=C1CCCCCN1SSN1CCCCCC1=O
inactive

Moving on to the next compound: N/C(=N\N=C\c1ccc(Cl)cc1)N/N=C/c1ccc(Cl)cc1
inactive

Moving on to the next compound: O=C(O)c1c(Cl)cccc1Cl
inactive

Moving on to the next compound: Fc1ccc([C@@H]2CCNC[C@H]2COc2ccc3c(c2)OCO3)cc1
inactive

Moving on to the next compound: CCCCCCCC/C=C/CCCCCCCC1=NCCN1CCO
active

Moving on to the next compound: O=C1c2c(O)ccc(Nc3ccc(CCO)cc3)c2C(=O)c2c([N+](=O)[O-])ccc(O)c21
inactive

Moving on to the next compound: Nc1c(Cl)cc(Cl)cc1Cl
inactive

Moving on to the next compound: NNC(=O)c1cccc(C(=O)NN)c1
inactive

Moving on to the next compound: COc1cc(-c2ccc(N=C=O)c(OC)c2)ccc1N=C=O
inactive

Moving on to the next compound: CCCCCOC(=O)CCCC
inactive

Moving on to the next compound: COc1cc(/C=C/C(=O)O[C@H]2CC[C@]34C[C@]35CC[C@]3(C)[C@@H]([C@H](C)CCC=C(C)C)CC[C@@]3(C)[C@@H]5CC[C@H]4C2(C)C)ccc1O
inactive

Moving on to the next compound: Nc1ccc2cc(S(=O)(=O)O)cc(O)c2c1N=Nc1ccccc1C(F)(F)F
inactive

Moving on to the next compound: CC(=O)OCC(C)OC(C)=O (centres undefined)
inactive

Moving on to the next compound: Cc1nc(-c2ccc3c(c2)CCN(CCC2CCC(NC(=O)/C=C/c4ccc(F)cc4)CC2)CC3)no1 (centres undefined)
inactive

Moving on to the next compound: CCCC1O[C@@H]2C[C@H]3[C@@H]4CCC5=CC(=O)C=C[C@]5(C)[C@H]4[C@@H](O)C[C@]3(C)[C@]2(C(=O)CO)O1 (some centres undefined)
inactive

###

Target desc: Estrogen receptor beta (Homo sapiens)
Procedure text: qHTS assay to identify small molecule antagonists of the estrogen receptor beta (ER-beta) signaling pathway (AID 1259378)
Test parameters: ER-beta-UAS-bla HEK293T, beta-lactamase FRET ratio, 16 h; series mostly up to 92.4 µM
Inconclusive results are not listed. The source made the active and inactive calls. The call rests on the fitted dose curve; in most records, active means well fitted inhibition curve with a large enough effect in the signal ratio in the repeat runs (not every such curve was filed as active); inconclusive means weak or mixed curves, or effect the other way; inactive means no such curve, though single readings can be large or run the other way; the % refers to the signal ratio.
Response enum: active, inactive

Entry C/C(=C(/OCCOc1ccc(Cl)cc1)c1ccc(Cl)cc1Cl)n1ccnc1 : call = ?
active

Moving on to the next compound: Cn1cc(C(=O)[C@@H]2CCc3nc[nH]c3C2)c2ccccc21
inactive

Moving on to the next compound: Nc1ccc2cc(S(=O)(=O)O)cc(O)c2c1N=Nc1ccccc1C(F)(F)F
inactive

Moving on to the next compound: CN(C)CCCOC1(Cc2ccccc2)CCCCCC1
inactive

Moving on to the next compound: CCCCCOc1ccccc1/C(=C\SC)n1ccnc1
active

Moving on to the next compound: Cc1cccc(N(C)C(=S)Oc2ccc3c(c2)C2CCC3C2)c1 (centres undefined)
inactive

Moving on to the next compound: CCCC(C)c1ccccc1O (centres undefined)
inactive

Moving on to the next compound: CC(=O)N1CCN(c2ccc(OC[C@H]3CO[C@](Cn4ccnc4)(c4ccc(Cl)cc4Cl)O3)cc2)CC1
active

Moving on to the next compound: CC(C)(C)NC(=O)[C@@H]1C[C@@H]2CCCC[C@@H]2CN1C[C@@H](O)[C@H](Cc1ccccc1)NC(=O)[C@H](CC(N)=O)NC(=O)c1ccc2ccccc2n1
active

Moving on to the next compound: O=C(Oc1ccccc1)c1ccccc1C(=O)Oc1ccccc1
active

Moving on to the next compound: CCCCCCCC(=O)[O-].CCCCCCCC(=O)[O-].[Zn+2]
inactive

Moving on to the next compound: CN(C)C(=O)C1(N2CCCCC2)CCN(CC[C@@]2(c3ccc(Cl)c(Cl)c3)CN(C(=O)c3ccccc3)CCO2)CC1
active

Moving on to the next compound: NNc1nc(-c2ccc([N+](=O)[O-])cc2)cs1
inactive

Moving on to the next compound: COCCCC/C(=N\OCCN)c1ccc(C(F)(F)F)cc1
active

Moving on to the next compound: CC(C)c1ccc2c(c1)CC[C@H]1[C@](C)(CN)CCC[C@]21C
active

Moving on to the next compound: O=C(NOCC1CC1)c1ccc(F)c(F)c1Nc1ccc(I)cc1Cl
active

Moving on to the next compound: O=[N+]([O-])c1ccccc1Nc1ccccc1
inactive

Moving on to the next compound: CC(C)(C)C(=O)OCOC(=O)[C@@H]1N2C(=O)[C@@H](NC(=O)[C@H](N)c3ccccc3)[C@H]2SC1(C)C
inactive

Moving on to the next compound: O=C(c1ccc(F)cc1)C1CCN(CCn2c(=O)[nH]c3ccccc3c2=O)CC1
inactive
